# Subject Of Test: T1, PUF4 RNA-binding domain (Saccharomyces cerevisiae, UniProt P25339 537-888)
# T1 sequence: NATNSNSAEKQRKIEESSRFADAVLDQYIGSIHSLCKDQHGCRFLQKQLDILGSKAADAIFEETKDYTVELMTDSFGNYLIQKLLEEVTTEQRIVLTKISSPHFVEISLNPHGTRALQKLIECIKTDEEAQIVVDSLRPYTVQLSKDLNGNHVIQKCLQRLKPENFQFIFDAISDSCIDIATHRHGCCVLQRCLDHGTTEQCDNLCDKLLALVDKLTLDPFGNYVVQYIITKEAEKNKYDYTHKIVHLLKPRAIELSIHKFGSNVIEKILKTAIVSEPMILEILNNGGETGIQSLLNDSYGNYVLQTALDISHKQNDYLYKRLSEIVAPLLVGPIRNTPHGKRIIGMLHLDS
# Test Method Notes: Mg; RNA-MaP; 20 mM Na-HEPES pH 7.4, 30 mM KOAc, 0.75 mM MgCl2, 0.1% Tween-20, 5% glycerol, 0.1 mg/mL BSA, 2 mM DTT; 25 C; 0.0125-409.6 nM protein
# Applied Conditions: tags: N-His6-TEV cleaved; C-SNAP kept, Cy3B-labelled; label: tethered on chip by stalled RNA polymerase
pKd: −log10 of the molar value.
Output t for pKd not less than 8; output f otherwise.

Query :: Textbook exercise: given the entry Id_iii_S2_P5E.5_K5.1_C5.3_H5.1_A5.1_F5.1_T5.2_[A12T] (ssRNA) RNA: UUUGAUUAAUAUGAUAUCGUUCUUUCUUCUUGUAUUAUUAUUUUCUUUCUCGAUAUCAUAUUAAUCUUU , state whether its pKd is greater than or equal to 8.
Result :: t

Query :: Textbook exercise: given the entry Id_ii_S2_P3E.3_K3.2_C3.2_[C-2A]_[T-1C]_H3.2_A3.1_F3.1_T3.2_[T9A] (ssRNA) RNA: UUUGAUUAAUAUGAUAUCGUUCUUUCUACUAUAUAUAAAUUCUUUCUCGAUAUCAUAUUAAUCUUU , state whether its pKd is greater than or equal to 8.
Result :: f

Query :: Textbook exercise: given the entry UCUCUUUGUCUAAUUAUCUCUU (ssRNA) [Ib_S1_P5E.1_K5.1_C5.1_H5.1_[A4C]_A5.1_[T6A]_F5.1_T5.1] , state whether its pKd is greater than or equal to 8.
Result :: f

Query :: Textbook exercise: given the entry Id_ii_S2_P5E.2_K5.1_C5.2_[T-1G]_H5.1_A5.1_F5.1_T5.2_[T11A]_[A12T] (ssRNA) RNA: UUUGAUUAAUAUGAUAUCGUUCUUUCUCGUGUAUUAUUAAUUUCUUUCUCGAUAUCAUAUUAAUCUUU , state whether its pKd is greater than or equal to 8.
Result :: t

Query :: Textbook exercise: given the entry ACAAACUGCAUUUUAACAAAC (ssRNA) [Ib_S3_P4E.1_K4.1_C4.1_H4.1_[T3C]_A4.1_[A6T]_F4.1_T4.1] , state whether its pKd is greater than or equal to 8.
Result :: f

Query :: Textbook exercise: given the entry Ib_S2_P5E.1_K5.1_C5.1_H5.1_A5.1_[A7T]_F5.1_[T9A]_T5.1 (ssRNA) RNA: UUUGAUUAAUAUGAUAUCGUUCUUUCUUGUAUUUUAAUUCUUUCUCGAUAUCAUAUUAAUCUUU , state whether its pKd is greater than or equal to 8.
Result :: t

Query :: Textbook exercise: given the entry UCUCUUAUACACUUAUUAAAUCUCUU (ssRNA) [Id_ii_S1_P5E.4_K5.3_C5.2_[C-2A]_H5.3_A5.1_F5.1_T5.2_[T11A]] , state whether its pKd is greater than or equal to 8.
Result :: f

Query :: Textbook exercise: given the entry Ie_S4_P3E.2_K3.1_C3.2_H3.1_[+1TTCC]_A3.1_F3.1_T3.2 (ssRNA) RNA: UUUGACAACUGAUCGUUCUUUCUCUUUUCCGUAUAUAUAUUCUUUCUCGAUCAGUUGUCUUU , state whether its pKd is greater than or equal to 8.
Result :: f

Query :: Textbook exercise: given the entry Id_ii_S2_P5E.3_K5.2_C5.2_[C-2G]_[T-1C]_H5.2_A5.1_F5.1_T5.2_[T11C]_[A12G] (ssRNA) RNA: UUUGAUUAAUAUGAUAUCGUUCUUUCUGCUAUAUUAUUACGUUCUUUCUCGAUAUCAUAUUAAUCUUU , state whether its pKd is greater than or equal to 8.
Result :: f

Query :: Textbook exercise: given the entry UCUCUUUGUAUUAUUCUCUAUCUCUU (ssRNA) [Ie_S1_P5E.1_K5.1_C5.1_H5.1_A5.1_F5.1_[+8TCTC]_T5.1] , state whether its pKd is greater than or equal to 8.
Result :: f

Query :: Textbook exercise: given the entry Ic_S4_P5E.1_K5.1_C5.1_H5.1_A5.1_[T5G]_[A7C]_F5.1_[T8G]_T5.1 (ssRNA) RNA: UUUGACAACUGAUCGUUCUUUCUUGUAGUCGUAUUCUUUCUCGAUCAGUUGUCUUU , state whether its pKd is greater than or equal to 8.
Result :: f

Query :: Textbook exercise: given the entry Id_ii_S2_P3E.2_K3.1_C3.2_[C-2G]_H3.1_A3.1_F3.1_T3.2_[A10T] (ssRNA) RNA: UUUGAUUAAUAUGAUAUCGUUCUUUCUGUUGUAUAUAUUUUCUUUCUCGAUAUCAUAUUAAUCUUU , state whether its pKd is greater than or equal to 8.
Result :: t

Query :: Textbook exercise: given the entry UCUCUUUGUAACUACUCUCUU (ssRNA) [Ic_S1_P4E.1_K4.1_C4.1_H4.1_A4.1_[T5A]_[A6C]_F4.1_[T8A]_[A9C]_T4.1] , state whether its pKd is greater than or equal to 8.
Result :: f

Query :: Textbook exercise: given the entry Ie_S2_P3E.2_K3.1_C3.2_[+-1CCTCT]_H3.1_A3.1_F3.1_T3.2 (ssRNA) RNA: UUUGAUUAAUAUGAUAUCGUUCUUUCUCUCCUCUUGUAUAUAUAUUCUUUCUCGAUAUCAUAUUAAUCUUU , state whether its pKd is greater than or equal to 8.
Result :: t

Query :: Textbook exercise: given the entry UCUCUUUGUAAUCUCUCUCUU (ssRNA) [Ic_S1_P4E.1_K4.1_C4.1_H4.1_A4.1_[T5A]_[A6T]_[T7C]_F4.1_[A9C]_T4.1] , state whether its pKd is greater than or equal to 8.
Result :: f

Query :: Textbook exercise: given the entry UCUCUUUGUAUCUCGUCUCUU (ssRNA) [Ic_S1_P4E.1_K4.1_C4.1_H4.1_A4.1_[A6C]_F4.1_[T8C]_[A9G]_T4.1] , state whether its pKd is greater than or equal to 8.
Result :: f

Query :: Textbook exercise: given the entry Ic_S2_P4E.1_K4.1_C4.1_H4.1_A4.1_[T5C]_[A6G]_F4.1_[T8A]_T4.1 (ssRNA) RNA: UUUGAUUAAUAUGAUAUCGUUCUUUCUUGUACGUAAUUCUUUCUCGAUAUCAUAUUAAUCUUU , state whether its pKd is greater than or equal to 8.
Result :: f

Query :: Textbook exercise: given the entry UCUCUUUGUACGUCUUCUCUU (ssRNA) [Ic_S1_P4E.1_K4.1_C4.1_H4.1_A4.1_[T5C]_[A6G]_F4.1_[T8C]_[A9T]_T4.1] , state whether its pKd is greater than or equal to 8.
Result :: f

Query :: Textbook exercise: given the entry Ib_S2_P4E.1_K4.1_C4.1_H4.1_[G2T]_[A4T]_A4.1_F4.1_T4.1 (ssRNA) RNA: UUUGAUUAAUAUGAUAUCGUUCUUUCUUUUUUAUUAUUCUUUCUCGAUAUCAUAUUAAUCUUU , state whether its pKd is greater than or equal to 8.
Result :: f

Query :: Textbook exercise: given the entry UCUCUUUGUAGCCUAUCUCUU (ssRNA) [Ic_S1_P4E.1_K4.1_C4.1_H4.1_A4.1_[T5G]_[A6C]_[T7C]_F4.1_T4.1] , state whether its pKd is greater than or equal to 8.
Result :: f
